This collection of values is drawn from patent US20250027068.

measurementTarget: pooled human IgG (human IgG1,2,3 and 4)
endpointName: Enzyme Activity Endpoint Assay: scIgG (ng/µL)
Use ng/µL as the unit, but write only the number.

Enzyme Activity Endpoint Assay: scIgG lookup needed for PRT-167 (protein) MANQEIRYSEVTPYHVTSVWTKGVTPPTDFTQGEDVFHAPYKANQGWYDITKTFNGKDDLLCGAATAGNMLHWWFDQNKDQIKRYLEEHPEKQKINFNGEQMFDVKEAIDTKNSQLDSKLFEYFKEKAFPYLSTKHLGVFPDHVIDMFINGYRLSLTNHGPTPVKEGSKDPRGGIFDAVFTRGDQSKLLTSRHDFKEKNLKEISDLIKKELTEGKALGLSHTYANVRINHVINLWGADFDSNGNLKAIYVTDSDSNASIGMKKYFVGVNSAGKVAISAKEIKEDNIGAQVLGLFTLSTGQDSWNQTN , thanks.
0
